assay: Pulmonary toxicity in Albino mouse assessed as change in alveolar sacs at 50 to 2000 mg/kg, po measured after 14 days; format: organism-based; conditions: in vivo, 336 h, dose 50-2000 mg/kg, time 14 day
endpoint-label: Activity

compound	result
COc1ccc(C2C(Cl)C(=O)N2C2=C(Cl)C(=O)c3ccccc3C2=O)cc1 (configuration not stated)	Non-Toxic
CCOc1cc(C2C(Cl)C(=O)N2C2=C(Cl)C(=O)c3ccccc3C2=O)ccc1O (configuration not stated)	Non-Toxic
O=C1C(Cl)=C(Cl)C(=O)c2ccccc21 [Dichlon]	Non-Toxic
NC1=C(Cl)C(=O)c2ccccc2C1=O	Non-Toxic
CN(C)c1ccc(C2C(Cl)C(=O)N2C2=C(Cl)C(=O)c3ccccc3C2=O)cc1 (configuration not stated)	Non-Toxic
O=C1C(Cl)=C(N2C(=O)C(Cl)C2c2ccc([N+](=O)[O-])cc2)C(=O)c2ccccc21 (configuration not stated)	Non-Toxic
O=C1C(Cl)=C(N2C(=O)C(Cl)C2c2ccc(Cl)cc2)C(=O)c2ccccc21 (configuration not stated)	Non-Toxic

====

assay: Acute toxicity in Albino mouse assessed as change in ESR at 50 to 2000 mg/kg, po measured after 14 days (reference value: 10 millimeter); assay type: organism-based; details: in vivo, 336 h, dose 50-2000 mg/kg, time 14 day
Quick reference for Activity among some compounds

compound	unit-string	Activity
COc1ccc(C2C(Cl)C(=O)N2C2=C(Cl)C(=O)c3ccccc3C2=O)cc1 (configuration not stated)	millimeter/hr	15
O=C1C(Cl)=C(Cl)C(=O)c2ccccc21	millimeter/hr	20
NC1=C(Cl)C(=O)c2ccccc2C1=O	millimeter/hr	16
O=C1C(Cl)=C(N2C(=O)C(Cl)C2c2ccc(Cl)cc2)C(=O)c2ccccc21 (configuration not stated)	millimeter/hr	14
O=C1C(Cl)=C(N2C(=O)C(Cl)C2c2ccc([N+](=O)[O-])cc2)C(=O)c2ccccc21 (configuration not stated)	millimeter/hr	15
CN(C)c1ccc(C2C(Cl)C(=O)N2C2=C(Cl)C(=O)c3ccccc3C2=O)cc1 (configuration not stated)	millimeter/hr	16
CCOc1cc(C2C(Cl)C(=O)N2C2=C(Cl)C(=O)c3ccccc3C2=O)ccc1O (configuration not stated)	millimeter/hr	11

====

assay: Acute toxicity in Albino mouse assessed as change in platelet count at 50 to 2000 mg/kg, po measured after 14 days (reference value: 3.24 mm3); format: organism-based; design: unit not given here; settings: in vivo, 336 h, dose 50-2000 mg/kg, time 14 day
Output satisfied for Activity not less than 6; output not satisfied otherwise.

molecule	group
CN(C)c1ccc(C2C(Cl)C(=O)N2C2=C(Cl)C(=O)c3ccccc3C2=O)cc1 (stereo not given)	satisfied
CCOc1cc(C2C(Cl)C(=O)N2C2=C(Cl)C(=O)c3ccccc3C2=O)ccc1O (stereo not given)	not satisfied

====

assay: Acute toxicity in Albino mouse assessed as change in SGOT count at 50 to 2000 mg/kg, po measured after 14 days (reference value: 42 IU/L); assay type: organism-based; conditions: in vivo, 336 h, dose 50-2000 mg/kg, time 14 day
Item-by-item account of Activity

compound	Activity [IU/L]
O=C1C(Cl)=C(N2C(=O)C(Cl)C2c2ccc(Cl)cc2)C(=O)c2ccccc21 (configuration not stated)	136.54
O=C1C(Cl)=C(N2C(=O)C(Cl)C2c2ccc([N+](=O)[O-])cc2)C(=O)c2ccccc21 (configuration not stated)	168.42
CCOc1cc(C2C(Cl)C(=O)N2C2=C(Cl)C(=O)c3ccccc3C2=O)ccc1O (configuration not stated)	168.67
O=C1C(Cl)=C(Cl)C(=O)c2ccccc21 [Dichlon]	29
NC1=C(Cl)C(=O)c2ccccc2C1=O	34
COc1ccc(C2C(Cl)C(=O)N2C2=C(Cl)C(=O)c3ccccc3C2=O)cc1 (configuration not stated)	95
CN(C)c1ccc(C2C(Cl)C(=O)N2C2=C(Cl)C(=O)c3ccccc3C2=O)cc1 (configuration not stated)	109
